- System: Candida tropicalis
- assay_procedure: Antifungal activity against Candida tropicalis C131 by micro-broth dilution method
- Assay type: functional
Each record here notes measured MIC.
Hi! Could you send only the number? It should be in µg/mL, unit omitted.

Worked examples follow.
> print(dat)
                 compound  assay.value
1     c1ccc(NCc2ccoc2)cc1          250
2     c1ccc(NCc2ccsc2)cc1          250
3    Cc1ccc(NCc2ccoc2)cc1          250
4  Clc1ccc(NCc2ccncc2)cc1         31.2
5    Fc1ccc(NCc2ccco2)cc1          125
6    Cc1ccc(NCc2ccco2)cc1          250

Given Ic1ccc(NCc2ccncc2)cc1 , state its recorded MIC.
50

Please do the same for CC(=O)N1CCN(c2ccc(OC[C@H]3CO[C@](Cn4ccnc4)(c4ccc(Cl)cc4Cl)O3)cc2)CC1 [KETOCONAZOLE] as well.
0.125

Please do the same for c1ccc(NCc2ccncc2)cc1 as well.
250

Please do the same for Clc1ccc(NCc2ccco2)cc1 as well.
62.5

Please do the same for Cc1ccc(NCc2cccc(N)c2)cc1 as well.
50

Please do the same for c1ccc(NCc2ccco2)cc1 as well.
250

Please do the same for O=[N+]([O-])c1cccc(NCc2ccccn2)c1 as well.
100

====

Each record here notes measured MIC.
- Test system: Cryptococcus neoformans
- assay_procedure: Antifungal activity against Cryptococcus neoformans IM 961951 by micro-broth dilution method
- Type: functional
Hi! Could you send only the number? It should be in µg/mL, unit omitted.

Worked examples follow.
> print(dat)
                               smiles.entry  readout.label  assay.value
1  C[C@@H](c1ncncc1F)[C@](O)(Cn1cncn1)c1ccc(F)cc1F            MIC         0.03
2                     Ic1ccc(NCc2ccncc2)cc1            MIC          100
3        OC(Cn1cncn1)(Cn1cncn1)c1ccc(F)cc1F            MIC          7.8
4                   Clc1ccc(NCc2ccco2)cc1Cl            MIC          100

Attention now shifts to the item below.
Tell me reported MIC for Nc1nc(=O)[nH]cc1F , tested with Cryptococcus neoformans.
7.8

====

Each record here notes measured MIC.
- System: Candida tropicalis
- assay_procedure: Antifungal activity against Candida tropicalis C131 by micro-broth dilution method
- Type: functional

Worked examples follow.
> print(dat)
                                   compound  readout.label  assay.value
1                  Cc1cc(C)cc(NCc2ccccn2)c1            MIC    200 µg/mL
2                     Oc1ccc(CNc2ccccc2)cc1            MIC    250 µg/mL
3  C=CCC(Nc1ccccc1)c1ccncc1 (stereo not drawn)            MIC    250 µg/mL
4                      c1ccc(NCc2cccnc2)cc1            MIC    250 µg/mL
5  C=CCC(Nc1ccc(OC)cc1)c1ccncc1 (stereo not drawn)            MIC  > 250 µg/mL
6                     Cc1ccc(NCc2ccccn2)cc1            MIC  > 250 µg/mL
7  C=CCC(Nc1ccc(Cl)cc1)c1ccsc1 (stereo not drawn)            MIC  > 250 µg/mL

Attention now shifts to the item below.
Given Cc1cc(C)cc(NCc2cccnc2)c1 , state its recorded MIC.
> 250 µg/mL

====

- Test system: Candida tropicalis
- assay_procedure: Antifungal activity against Candida tropicalis C131 by micro-broth dilution method
- Assay type: functional
readout_label: MIC (µg/mL)
Hi! Could you send only the number? It should be in µg/mL, unit omitted.

> print(dat)
                       smiles.entry  readout.label  assay.value
1  O=[N+]([O-])c1cccc(NCc2ccncc2)c1            MIC          100
2             Clc1ccc(NCc2ccoc2)cc1            MIC          125
3              c1ccc(NCc2ccccn2)cc1            MIC          250
4          Cc1cc(C)cc(NCc2ccncc2)c1            MIC          250
5             Brc1ccc(NCc2ccco2)cc1            MIC           75

Attention now shifts to the item below.
Given Clc1ccc(NCc2cccs2)cc1 , state its recorded MIC.
62.5

====

Each record here notes measured IC50.
- System: NCI-H460
- assay_procedure: Cytotoxicity against human H460 cells by SRB assay
- Type: functional, cell-based

Worked examples follow.
> print(dat)
                               smiles.entry  readout.label  assay.value
1                     Ic1ccc(NCc2ccncc2)cc1           IC50   > 10 µg/mL
2  COc1cccc2c1C(=O)c1c(O)c3c(c(O)c1C2=O)C[C@@](O)(C(=O)CO)C[C@@H]3O[C@H]1C[C@H](N)[C@H](O)[C@H](C)O1           IC50   0.18 µg/mL

Given O=[N+]([O-])c1cccc(NCc2ccncc2)c1 , state its recorded IC50.
> 10 µg/mL

Please do the same for Clc1ccc(NCc2ccco2)cc1Cl as well.
8.7 µg/mL

====

- Tested on: Candida tropicalis
- assay_procedure: Antifungal activity against Candida tropicalis C131 by micro-broth dilution method
- Assay type: functional
Please use Fulfilled for MIC under 60 µg/mL and Not fulfilled for everything else, ties included.

Known results for molecules:
molecule	assay_system	answer_label
Cc1ccc(NCc2ccncc2)cc1	Candida tropicalis	Fulfilled
C=CCC(Nc1ccc(Cl)cc1)c1ccoc1 (stereo unspecified)	Candida tropicalis	Not fulfilled
C=CCC(Nc1ccccc1)c1ccoc1 (stereo unspecified)	Candida tropicalis	Not fulfilled
Clc1ccc(NCc2ccsc2)cc1	Candida tropicalis	Not fulfilled
Clc1ccc(NCc2ccco2)cc1Cl	Candida tropicalis	Not fulfilled

Determine whether this molecule shows MIC lower than 60 µg/mL (ties excluded): CN(C)c1ccc(CNc2ccccc2)cc1
Not fulfilled

Please do the same for Ic1ccc(NCc2cccnc2)cc1 as well.
Not fulfilled

Please do the same for C=CCC(Nc1ccccc1)c1ccsc1 (stereo unspecified) as well.
Not fulfilled

Please do the same for C=CCC(Nc1cc(C)cc(C)c1)c1ccncc1 (stereo unspecified) as well.
Not fulfilled

Please do the same for C[C@@H]1[C@H](O)[C@@H](C)/C=C/C=C/C=C/C=C/C=C/C=C/C=C/[C@H](O[C@@H]2O[C@H](C)[C@@H](O)[C@H](N)[C@@H]2O)C[C@@H]2O[C@](O)(C[C@@H](O)C[C@@H](O)[C@H](O)CC[C@@H](O)C[C@@H](O)CC(=O)O[C@H]1C)C[C@H](O)[C@H]2C(=O)O [AMPHOTERICIN B] as well.
Fulfilled

Please do the same for N#CC(Nc1ccccc1)c1ccoc1 (stereo unspecified) as well.
Not fulfilled

====

- Tested on: Cryptococcus neoformans
- assay_procedure: Antifungal activity against Cryptococcus neoformans IM 972724 by micro-broth dilution method
- Format: functional
readout_label: MIC

> print(dat)
                                   compound  readout.label    assay.value
1        OC(Cn1cncn1)(Cn1cncn1)c1ccc(F)cc1F            MIC      3.9 µg/mL
2  CCC(C)n1ncn(-c2ccc(N3CCN(c4ccc(OCC5COC(Cn6cncn6)(c6ccc(Cl)cc6Cl)O5)cc4)CC3)cc2)c1=O (stereo unspecified)            MIC     0.25 µg/mL
3  C[C@@H](c1ncncc1F)[C@](O)(Cn1cncn1)c1ccc(F)cc1F            MIC  < 0.015 µg/mL
4                     Ic1ccc(NCc2ccncc2)cc1            MIC       25 µg/mL
5                   Clc1ccc(NCc2ccco2)cc1Cl            MIC       25 µg/mL

Attention now shifts to the item below.
Given Nc1nc(=O)[nH]cc1F , state its recorded MIC.
3.9 µg/mL

Origin of measurements: ChEMBL document CHEMBL1143950
